Sourced from paper PMC12268638

# key: entry, value: IC50
Target: human GRK5WT (Homo sapiens, UniProt P34947)
Construct: human GRK5WT or GRK5D311N (residues 1–590 followed by a hexahistidine tag); hexahistidine (C); made in house; host or cells: E. coli Rosetta (DE3)
Sequence (P34947 whole entry, the tested form may be a part): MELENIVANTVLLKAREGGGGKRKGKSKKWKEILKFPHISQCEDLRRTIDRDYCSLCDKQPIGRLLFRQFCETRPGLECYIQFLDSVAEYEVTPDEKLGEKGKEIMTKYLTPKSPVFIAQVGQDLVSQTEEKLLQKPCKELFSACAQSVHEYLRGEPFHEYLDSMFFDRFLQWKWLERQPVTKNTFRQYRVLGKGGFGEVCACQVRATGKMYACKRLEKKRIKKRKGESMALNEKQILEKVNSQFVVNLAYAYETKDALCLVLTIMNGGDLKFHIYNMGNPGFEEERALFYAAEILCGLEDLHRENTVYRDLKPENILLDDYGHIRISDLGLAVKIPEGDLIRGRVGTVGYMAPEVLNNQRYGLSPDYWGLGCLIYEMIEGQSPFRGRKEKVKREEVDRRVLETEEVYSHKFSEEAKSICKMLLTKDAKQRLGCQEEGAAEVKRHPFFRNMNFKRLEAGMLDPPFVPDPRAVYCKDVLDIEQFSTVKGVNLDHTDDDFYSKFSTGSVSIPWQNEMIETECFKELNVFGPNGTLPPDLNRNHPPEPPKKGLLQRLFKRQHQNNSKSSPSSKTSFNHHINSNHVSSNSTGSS
Test: GRK kinase inhibition assay ([γ-32P]-ATP phosphorylation of tubulin or Rho*)
Assay type: biochemical
Settings: read-out: IC50 (no K3Cit); substrate Rho* in ROS; without K3Cit; mean and SD
Protocol: GRK inhibition assays were performed in 20 mM Hepes (pH 7.0), 2 mM MgCl2, 0.025% n-dodecyl-β-D-maltoside with 50 nM human GRK5WT as purified previously. […] Reactions were quenched with 4X SDS loading buffer, separated in SDS-PAGE, dried, and read by phosphorimaging and then quantified via a Personal Molecular Imager and Quantity One 1-D Analysis Software. […]

| structure.notation | assayed.system | IC50 / µM |
| --- | --- | --- |
| Nc1ncnc2c1ncn2[C@@H]1O[C@H](COP(=O)(O)O)[C@@H](O)[C@H]1O | human GRK5WT (Homo sapiens, UniProt P34947) | 1000 |
| Nc1ncnc2c1ncn2[C@@H]1O[C@H](COP(=O)(O)OP(=O)(O)O)[C@@H](O)[C@H]1O | human GRK5WT (Homo sapiens, UniProt P34947) | 56 |
